Values of IC50 reported for Dengue viral polymerase (Dengue virus type 2) appear below.

> print(dat)
                                   compound  parameter   datavalue
1  C#C[C@]1(O)[C@H](n2cc(F)c3c(N)ncnc32)O[C@](F)(COP(=O)(O)OP(=O)(O)OP(=O)(O)O)[C@H]1O [Compound 51]       IC50      < 3 µM
2  C#C[C@]1(O)[C@H](n2cc(C(N)=O)c3c(N)ncnc32)O[C@](F)(COP(=O)(O)OP(=O)(O)OP(=O)(O)O)[C@H]1O [Compound 50]       IC50      < 3 µM
3  C#C[C@@]1(O)[C@H](O)[C@@H](COP(=O)(O)OP(=O)(O)OP(=O)(O)O)O[C@H]1c1cnc2c(N)ncnn12 [Compound 53]       IC50  3 to 30 µM
4  C#C[C@]1(O)[C@H](n2cnc3c(N)ncnc32)O[C@](F)(COP(=O)(O)OP(=O)(O)OP(=O)(O)O)[C@H]1O [Compound 23]       IC50      < 3 µM
5  C[C@]1(O)[C@H](n2cnc3c(N)ncnc32)O[C@](F)(COP(=O)(O)OP(=O)(O)OP(=O)(O)O)[C@H]1O [Compound 20]       IC50  3 to 30 µM

Would you please give the reported IC50 of C#C[C@]1(O)[C@H](n2cc(C#N)c3c(N)ncnc32)O[C@](F)(COP(=O)(O)OP(=O)(O)OP(=O)(O)O)[C@H]1O [Compound 45] with Dengue viral polymerase (Dengue virus type 2)?
< 3 µM
